Reference source for all entries: patent US20190315806A1

In this section we review reported MIC A. baumannii ATCC 19606 values for a set of compounds.
Tested on: Acinetobacter baumannii ATCC 19606
Type: cell-based
protocol-conditions: ATCC 19606
Where a SMILES comes first, the peptide text is derived from it. Bridges are numbered along the chain shown (N, C = ends). [ ]: non-standard residue; d: D form. The star is where a group is joined. X2 = CC[C@H](C)CCCCC(=O)*; Octanoyl = CCCCCCCC(=O)*; Dab = NCC[C@H](N)C(=O)O

compound: CC[C@H](C)CCCCC(=O)N[C@@H](CCN)C(=O)N[C@H](C(=O)N[C@H](CO)C(=O)N[C@H]1CCNC(=O)[C@H]([C@@H](C)O)NC(=O)[C@H](CCN)NC(=O)[C@H](CCN)NC(=O)[C@H]([C@@H](C)O)NC(=O)[C@@H](CC(C)C)NC(=O)[C@H](CCN)NC1=O)[C@@H](C)O [Compound 58] (X2-[Dab]T[dS][Dab][Dab][dL]T[Dab][Dab]T; lactam 4-C)
assay-target: Acinetobacter baumannii ATCC 19606
MIC A. baumannii ATCC 19606: 0.06 µg/mL

compound: CCOc1ccc(C[C@H]2NC(=O)[C@H](CCN)NC(=O)[C@@H](NC(=O)[C@H](CCN)NC(=O)[C@@H](NC(=O)[C@H](CCN)NC(=O)CCCC[C@@H](C)CC)[C@@H](C)O)CCNC(=O)[C@H]([C@@H](C)O)NC(=O)[C@H](CCN)NC(=O)[C@H](CCN)NC(=O)[C@H](CC(C)C)NC2=O)cc1 [Compound 25] (X2-[Dab]T[Dab][Dab][Dab][dY](Et)L[Dab][Dab]T; lactam 4-C)
assay-target: Acinetobacter baumannii ATCC 19606
MIC A. baumannii ATCC 19606: 2 µg/mL

compound: CCCCCCCC(=O)N[C@@H](CCN)C(=O)N[C@H](C(=O)N[C@@H](CO)C(=O)N[C@H]1CCNC(=O)[C@H]([C@@H](C)O)NC(=O)[C@H](CCN)NC(=O)[C@H](CCN)NC(=O)[C@H](CC(C)C)NC(=O)[C@@H](CC(C)C)NC(=O)[C@H](CCN)NC1=O)[C@@H](C)O [Compound 98] (Octanoyl-[Dab]TS[Dab][Dab][dL]L[Dab][Dab]T; lactam 4-C)
assay-target: Acinetobacter baumannii ATCC 19606
MIC A. baumannii ATCC 19606: 0.5 µg/mL

====

System: Pseudomonas aeruginosa ATCC 27853
Type: cell-based
protocol-conditions: ATCC 27853
Where a SMILES comes first, the peptide text is derived from it. Bridges are numbered along the chain shown (N, C = ends). [ ]: non-standard residue; d: D form. The star is where a group is joined. Heptanoyl(6-Me) = CC(C)CCCCC(=O)*; dDab = NCC[C@@H](N)C(=O)O; Heptanoyl = CCCCCCC(=O)*; Octanoyl = CCCCCCCC(=O)*; Dab = NCC[C@H](N)C(=O)O
experimental-endpoint: MIC P. aeruginosa ATCC 27853 (µg/mL)

molecule: CCCCCCC(=O)N[C@@H](CCN)C(=O)N[C@H](C(=O)N[C@@H](CCN)C(=O)N[C@H]1CCNC(=O)[C@H]([C@@H](C)O)NC(=O)[C@H](CCN)NC(=O)[C@H](CCN)NC(=O)[C@H](CC(C)C)NC(=O)[C@@H](Cc2ccccc2)NC(=O)[C@H](CCN)NC1=O)[C@@H](C)O [Compound 45] (Heptanoyl-[Dab]T[Dab][Dab][Dab][dF]L[Dab][Dab]T; lactam 4-C)
val: 1
//
molecule: CC(C)CCCCC(=O)N[C@@H](CCN)C(=O)N[C@H](C(=O)N[C@H](CCN)C(=O)N[C@H]1CCNC(=O)[C@H]([C@@H](C)O)NC(=O)[C@H](CCN)NC(=O)[C@H](CCN)NC(=O)[C@H]([C@@H](C)O)NC(=O)[C@@H](Cc2ccccc2)NC(=O)[C@H](CCN)NC1=O)[C@@H](C)O [Compound 144] ({Heptanoyl(6-Me)}-[Dab]T[dDab][Dab][Dab][dF]T[Dab][Dab]T; lactam 4-C)
val: 1
//
molecule: CCCCCCCC(=O)N[C@@H](CCN)C(=O)N[C@H](C(=O)N[C@H](CCN)C(=O)N[C@H]1CCNC(=O)[C@H]([C@@H](C)O)NC(=O)[C@H](CCN)NC(=O)[C@H](CCN)NC(=O)[C@H]([C@@H](C)O)NC(=O)[C@@H](CC(C)C)NC(=O)[C@H](CCN)NC1=O)[C@@H](C)O [Compound 32] (Octanoyl-[Dab]T[dDab][Dab][Dab][dL]T[Dab][Dab]T; lactam 4-C)
val: 1

====

Test system: Klebsiella pneumoniae ATCC BAA-2146 (NDM-1)
experimental-details: Antibacterial activity, MIC by dish double dilution method
Format: cell-based
protocol-conditions: ATCC BAA-2146
Where a SMILES comes first, the peptide text is derived from it. Bridges are numbered along the chain shown (N, C = ends). [ ]: non-standard residue; d: D form. The star is where a group is joined. Heptanoyl(6-Me) = CC(C)CCCCC(=O)*; X2 = CC[C@H](C)CCCCC(=O)*; dDab = NCC[C@@H](N)C(=O)O; Octanoyl = CCCCCCCC(=O)*; Dab = NCC[C@H](N)C(=O)O; X6 = CCCC(=O)CC(=O)*
experimental-endpoint: MIC K. pneumoniae ATCC BAA-2146 (NDM-1) (µg/mL)

compound: CC(C)CCCCC(=O)N[C@@H](CCN)C(=O)N[C@H](C(=O)N[C@H](CCN)C(=O)N[C@H]1CCNC(=O)[C@H]([C@@H](C)O)NC(=O)[C@H](CCN)NC(=O)[C@H](CCN)NC(=O)[C@H]([C@@H](C)O)NC(=O)[C@@H](Cc2ccccc2)NC(=O)[C@H](CCN)NC1=O)[C@@H](C)O [Compound 144] ({Heptanoyl(6-Me)}-[Dab]T[dDab][Dab][Dab][dF]T[Dab][Dab]T; lactam 4-C)
val: 1
//
compound: CCCCCCCC(=O)N[C@@H](CCN)C(=O)N[C@H](C(=O)N[C@@H](CCN)C(=O)N[C@H]1CCNC(=O)[C@H](CO)NC(=O)[C@H](CCN)NC(=O)[C@H](CCN)NC(=O)[C@H]([C@@H](C)O)NC(=O)[C@@H](CC(C)C)NC(=O)[C@H](CCN)NC1=O)[C@@H](C)O [Compound 109] (Octanoyl-[Dab]T[Dab][Dab][Dab][dL]T[Dab][Dab]S; lactam 4-C)
val: 2
//
compound: CC(C)CCCCC(=O)N[C@@H](CCN)C(=O)N[C@H](C(=O)N[C@@H](CCN)C(=O)N[C@H]1CCNC(=O)[C@H](CC(C)C)NC(=O)[C@H](CCN)NC(=O)[C@H](CCN)NC(=O)[C@H](CC(C)C)NC(=O)[C@@H](Cc2ccccc2)NC(=O)[C@H](CCN)NC1=O)[C@@H](C)O [Compound 128] ({Heptanoyl(6-Me)}-[Dab]T[Dab][Dab][Dab][dF]L[Dab][Dab]L; lactam 4-C)
val: 4
//
compound: CC[C@H](C)CCCCC(=O)N[C@@H](CCN)C(=O)N[C@H](C(=O)N[C@@H](CCN)C(=O)N[C@H]1CCNC(=O)[C@H](CC(C)C)NC(=O)[C@H](CCN)NC(=O)[C@H](CCN)NC(=O)[C@H](CC(C)C)NC(=O)[C@@H](Cc2ccccc2)NC(=O)[C@H](CCN)NC1=O)[C@@H](C)O [Compound 127] (X2-[Dab]T[Dab][Dab][Dab][dF]L[Dab][Dab]L; lactam 4-C)
val: 4
//
compound: CCCCCCCC(=O)N[C@@H](CCN)C(=O)N[C@H](C(=O)N[C@H](CCN)C(=O)N[C@H]1CCNC(=O)[C@H]([C@@H](C)O)NC(=O)[C@H](CCN)NC(=O)[C@H](CCN)NC(=O)[C@H]([C@@H](C)O)NC(=O)[C@@H](CC(C)C)NC(=O)[C@H](CCN)NC1=O)[C@@H](C)O [Compound 32] (Octanoyl-[Dab]T[dDab][Dab][Dab][dL]T[Dab][Dab]T; lactam 4-C)
val: 0.5
//
compound: CCCC(=O)CC(=O)N[C@@H](CCN)C(=O)N[C@H](C(=O)N[C@@H](CCN)C(=O)N[C@H]1CCNC(=O)[C@H]([C@@H](C)O)NC(=O)[C@H](CCN)NC(=O)[C@H](CCN)NC(=O)[C@H](CC(C)C)NC(=O)[C@@H](Cc2ccccc2)NC(=O)[C@H](CCN)NC1=O)[C@@H](C)O [Compound 3] (X6-[Dab]T[Dab][Dab][Dab][dF]L[Dab][Dab]T; lactam 4-C)
val: 2

====

In this section we review reported MIC A. baumannii ATCC 19606 values for a set of compounds.
System: Acinetobacter baumannii ATCC 19606
Assay type: cell-based
protocol-conditions: ATCC 19606
Where a SMILES comes first, the peptide text is derived from it. Bridges are numbered along the chain shown (N, C = ends). [ ]: non-standard residue; d: D form. The star is where a group is joined. X2 = CC[C@H](C)CCCCC(=O)*; dDab = NCC[C@@H](N)C(=O)O; Octanoyl = CCCCCCCC(=O)*; Dab = NCC[C@H](N)C(=O)O
experimental-endpoint: MIC A. baumannii ATCC 19606 (µg/mL)

compound: CCCCCCCC(=O)N[C@@H](CCN)C(=O)N[C@H](C(=O)N[C@H](CO)C(=O)N[C@H]1CCNC(=O)[C@H]([C@@H](C)O)NC(=O)[C@H](CCN)NC(=O)[C@H](CCN)NC(=O)[C@H]([C@@H](C)O)NC(=O)[C@@H](Cc2ccccc2)NC(=O)[C@H](CCN)NC1=O)[C@@H](C)O [Compound 117] (Octanoyl-[Dab]T[dS][Dab][Dab][dF]T[Dab][Dab]T; lactam 4-C)
experimental-endpoint: MIC A. baumannii ATCC 19606
val: 0.25

compound: CCCCCCCC(=O)N[C@@H](CCN)C(=O)N[C@H](C(=O)N[C@@H](CCN)C(=O)N[C@H]1CCNC(=O)[C@H]([C@@H](C)O)NC(=O)[C@H](CCN)NC(=O)[C@H](CCN)NC(=O)[C@H](CC(C)C)NC(=O)[C@@H](Cc2ccccc2)NC(=O)[C@H](CCN)NC1=O)[C@@H](C)O [Compound 44] (Octanoyl-[Dab]T[Dab][Dab][Dab][dF]L[Dab][Dab]T; lactam 4-C)
experimental-endpoint: MIC A. baumannii ATCC 19606
val: 0.5

compound: CC[C@H](C)CCCCC(=O)N[C@@H](CCN)C(=O)N[C@H](C(=O)N[C@H](CCN)C(=O)N[C@H]1CCNC(=O)[C@H]([C@@H](C)O)NC(=O)[C@H](CCN)NC(=O)[C@H](CCN)NC(=O)[C@H]([C@@H](C)O)NC(=O)[C@@H](Cc2ccccc2)NC(=O)[C@H](CCN)NC1=O)[C@@H](C)O [Compound 143] (X2-[Dab]T[dDab][Dab][Dab][dF]T[Dab][Dab]T; lactam 4-C)
experimental-endpoint: MIC A. baumannii ATCC 19606
val: 1
